B1: CPEB3 Ribozyme (parent)
chain: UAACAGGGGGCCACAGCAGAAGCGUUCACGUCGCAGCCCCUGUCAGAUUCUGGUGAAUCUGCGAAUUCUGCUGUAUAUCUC

Variants of: B1
Assay: self-cleavage, relative activity (ratio to wild type); higher = more cleavage; in vitro, sequencing

residue-change | self-cleavage
A21U U78C | 0.25
C34U A35U | 0.27
G61A U66C | 0.39
U41C G52C | 1.12
C12U A57G | 1.26
A5G U80C | 0.66
A2C G8A | 0.1
G33C A65G | 0.18
C59A A75G | 0.16
A2U U51A | 1.17
A75U U80A | 1.25
U1A C38U | 0.97
G33A U72C | 0.26
A2U A56G | 0.88
A21C U51C | 0.19
C29A U41A | 0.37
A3U G7A | 0.47
G10C A56G | 0.15
U31C U72G | 0.46
G9C A77C | 0.18
G9U G24C | 0.11
U41C U51C | 1.08
G8U U69A | 0.12
C4U U78C | 1.14
U26C U80C | 0.56
A13U U49C | 0.31
A35U U76A | 0.65
G52C A64G | 1.04
G52C U72C | 1.24
U25A U43A | 0.21
U1A U49C | 0.52
A45C G63C | 0.52
A5G A15G | 0.6
A47G U78C | 0.93
G46U C68U | 0.23
C11A A13G | 0.09
C29G A35G | 0.67
U48C A75U | 0.71
C34G G42A | 0.62
G7U U69C | 0.19
U51C A77G | 1.08
G24C U80C | 0.36
U67C U80A | 0.32
C50U U76C | 0.98
U66C U72A | 0.39
U67C | 0.32
C37G | 0.8
C11U U74C | 0.83
G6A C12U | 0.59
C12G A15G | 0.1
A15U G61C | 0.07
U54A U58G | 0.42
U51C G53C | 1.01
C39A A57C | 0.14
C34U G63A | 0.27
G6A U58G | 0.29
C14U A77C | 0.53
A57U U58C | 0.18
A56U A75G | 0.54
A5G U78C | 0.63
G8A U48C | 0.15
U51A U69C | 0.67
U43C U58G | 0.19
G9A U76A | 0.45
U31A U67C | 0.2
U54G U78C | 0.68
G33U U60C | 0.11
A13U U58A | 0.44
G16C U74C | 0.25
U26C A57G | 0.36
A45G G46U | 0.21
U1G A28G | 0.55
A13U G36A | 0.33
U31C A35G | 1.21
U48G A57U | 1.07
U58C U80A | 0.91
A13G U41G | 0.37
A65G U78G | 0.44
C29A U72C | 0.31
A20U C27A | 0.27
A21U U26A | 0.35
U51A A75G | 0.86
G36A A75C | 0.28
C14G | 1.08
U58C A77G | 0.56
C40A C50U | 0.22
U43C U76C | 0.73
C71U U72C | 1.02
C27A U51C | 0.21
U60A U74G | 0.91
U31C C81G | 0.55
